Test system: A498
Assay type: cell-based
Conditions: Homo sapiens, one dose 10^-5 M, 48 h
READOUT_LABEL: % growth at 10 µM (%)

> print(dat)
                                   molecule   tgt  endpoint.result
1  CN(C)c1ccc(-c2nc(S)nc(N)c2-c2ncn[nH]2)cc1 [Compound 5a]  A498              131
2  Nc1nc(S)nc(-c2ccc(Cl)cc2)c1-c1ncn[nH]1 [Compound 5b]  A498              109
3  N=C(NN=Cc1ccc([N+](=O)[O-])cc1)c1c(N)nc(S)nc1-c1ccc(Cl)cc1Cl [Compound 4o]  A498              160
4  CN(C)c1ccc(-c2nc(S)nc(N)c2C(=N)NN=Cc2ccc(Br)cc2)cc1 [Compound 4e]  A498              118
5  COc1ccc(C=NNC(=N)c2c(N)nc(S)nc2-c2ccc(Cl)cc2Cl)cc1 [Compound 4p]  A498              138
6  N#Cc1c(N)nc(S)nc1-c1ccc(Cl)cc1Cl [Compound 1c]  A498              137
7  N=C(NN=Cc1ccc(Cl)cc1)c1c(N)nc(S)nc1-c1ccc(Cl)cc1 [Compound 4h]  A498              102
8  Nc1nc(S)nc(-c2ccc(Cl)cc2Cl)c1-c1ncn[nH]1 [Compound 5c]  A498              120
9  CN(C)c1ccc(-c2nc(S)nc(N)c2C(=N)NN=Cc2ccc(Cl)cc2)cc1 [Compound 4b]  A498             92.1

// provenance: paper PMC10866072
